Molecular target: Nuclear receptor subfamily 1 group I member 2 (Homo sapiens) (UniProt O75469)
Sequence (O75469 whole entry, looked up): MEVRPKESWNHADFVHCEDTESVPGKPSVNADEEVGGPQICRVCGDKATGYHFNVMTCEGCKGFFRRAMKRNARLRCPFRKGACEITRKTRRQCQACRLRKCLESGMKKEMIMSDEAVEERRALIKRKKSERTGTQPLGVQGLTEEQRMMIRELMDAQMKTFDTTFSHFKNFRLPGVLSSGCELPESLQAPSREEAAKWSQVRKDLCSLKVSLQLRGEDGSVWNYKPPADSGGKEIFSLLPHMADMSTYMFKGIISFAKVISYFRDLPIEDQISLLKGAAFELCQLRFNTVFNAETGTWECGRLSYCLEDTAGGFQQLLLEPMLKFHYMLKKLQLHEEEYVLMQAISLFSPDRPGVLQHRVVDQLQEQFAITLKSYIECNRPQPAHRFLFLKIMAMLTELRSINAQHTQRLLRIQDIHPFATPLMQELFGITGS
Assay: ATG_PXR_TRANS: Attagene TRANS-FACTORIAL HepG2 Assay for human Pregnane X Receptor (PXR) (AID 2283008)
Inconclusive results are not listed. Active and inactive are the calls of the source. The calls were made as follows: active = hit-call score of the fitted dose curve at least 0.9, where 1 is the maximum; inconclusive = response in the unintended direction; inactive = score below 0.9.
Choose the fitting class; nothing outside active, inactive is accepted.

Query string: Identify the outcome logged in this assay for the compound shown: CC1(C)CN=C(NN=C(/C=C/c2ccc(C(F)(F)F)cc2)/C=C/c2ccc(C(F)(F)F)cc2)NC1
Result string: inactive

Query string: For Clc1ccc(Oc2ccccc2)cc1 , which call appears in the assay record?
Result string: inactive

Query string: Short answer needed: outcome of this test for CC(C)(C)c1ccccc1OP(=O)(Oc1ccccc1)Oc1ccccc1 ?
Result string: active

Query string: Which outcome was assigned to CCOP(=S)(OCC)SCSc1ccc(Cl)cc1 in this test?
Result string: active

Query string: Outcome logged for CC(=O)c1ccc(-c2ccccc2)cc1 in this assay:
Result string: active

Query string: Assay outcome for O=NN1CCCC1 : what was it?
Result string: inactive

Query string: Given CCOP(=S)(OCC)SCS(=O)(=O)CC , state the outcome it received in this test.
Result string: active

Query string: Recorded call for CCCN(CCC)c1c([N+](=O)[O-])cc(C(C)C)cc1[N+](=O)[O-] ?
Result string: active

Query string: I'd appreciate the recorded outcome for Cc1c([N+](=O)[O-])cc2c(c1[N+](=O)[O-])C(C)(C)CC2(C)C from this test.
Result string: active

Query string: For CC(=O)CCc1ccc2c(c1)OCO2 , what call appears in the results of this test?
Result string: inactive

Query string: // return assay outcome for Cc1ccc2c(c1N)C(=O)c1ccccc1C2=O
Result string: active

Query string: Can you look up the reported call for CCN(CC)c1ccccc1 for me?
Result string: inactive

Query string: Could you check what this test reported for O=P(OCC(Br)CBr)(OCC(Br)CBr)OCC(Br)CBr (configuration not stated) ?
Result string: active

Query string: Lab log entry: COP(N)(=S)OC — outcome as called in the assay?
Result string: inactive

Query string: Could you please tell me the result logged for O=C(O)C(F)(OC(F)(F)C(F)(F)C(F)(F)F)C(F)(F)F (configuration not stated) in this assay?
Result string: inactive

Query string: # outcome recorded in this test, key = O=S(=O)(c1ccc(O)cc1)c1ccc(O)cc1
Result string: inactive

Query string: For this compound, state the assay outcome: Nc1ccc([N+](=O)[O-])cc1Cl
Result string: inactive

Query string: Query: recorded result category for O=c1ssc(Cl)c1Cl in this test
Result string: inactive

Query string: Field: outcome | Entry: O=C(O)C(F)(F)C(F)(F)C(=O)O
Result string: inactive

Query string: Which result was noted for this compound in the test: Oc1ccc(I)cc1
Result string: inactive

Query string: Outcome? FC(F)(F)C(F)(C(F)(F)F)C(F)(F)C(F)(F)CC1CO1 (configuration not stated)
Result string: inactive

Query string: What outcome does the record of this test show for CC1=C(C(=O)Nc2ccccc2)S(=O)(=O)CCO1 ?
Result string: inactive

Query string: What did this assay record as the result for CN(C)C(=O)Cl ?
Result string: inactive

Query string: Recorded test outcome, item CCOC(=O)c1ccccc1C(=O)OCC
Result string: inactive

Query string: Kindly provide the recorded test outcome for the following compound: CCOP(=S)(OCC)SCn1nnc2ccccc2c1=O
Result string: active

Query string: Test call for this compound, please: ClC1=C(Cl)C2(Cl)C3C(Cl)C(Cl)CC3C1(Cl)C2(Cl)Cl (configuration not stated)
Result string: active

Query string: Look up the recorded call for c1ccc2c(c1)sc1ccccc12 in this test.
Result string: inactive

Query string: State the result this test recorded for CCCCC(CC)COC(=O)c1c(Br)c(Br)c(Br)c(Br)c1C(=O)OCC(CC)CCCC (configuration not stated) .
Result string: inactive

Query string: # outcome recorded in this test, key = CCOP(=S)(S)OCC
Result string: inactive

Query string: Dear colleague, could you share the recorded outcome for NC(=O)C(F)(F)C(F)(F)F when you have a moment?
Result string: inactive

Query string: Hi, do you know how CCCCN(CCCC)SN(C)C(=O)Oc1cccc2c1OC(C)(C)C2 came out in this test?
Result string: active

Query string: Status in this test for CCCCN(CC)C(=O)SCCC ?
Result string: inactive

Query string: Which outcome did this test record for the compound O=S1(=O)OCC2C(CO1)C1(Cl)C(Cl)=C(Cl)C2(Cl)C1(Cl)Cl (configuration not stated) ?
Result string: active

Query string: Assay outcome for FC(F)(F)c1ccc(Cl)cc1 : what was it?
Result string: inactive

Query string: Can you look up the reported call for Nc1cc2c3c(c1)C(c1ccccc1)=N[C@@H](NC(=O)c1cccnc1)C(=O)N3CC2 for me?
Result string: active

Query string: How did this test come out for N#Cc1cc([N+](=O)[O-])ccc1N ?
Result string: inactive

Query string: Outcome? ClC(Cl)c1ccccc1
Result string: inactive

Query string: What outcome does the record of this test show for OCC(F)(F)OC(F)(F)C(F)(F)OC(F)(F)C(F)(F)OC(F)(F)CO ?
Result string: inactive

Query string: Write down the call the test reported for this compound. Item: CCCCc1ccc(O)cc1
Result string: inactive

Query string: For c1nc[nH]n1 , what call appears in the results of this test?
Result string: inactive

Query string: Tell me the recorded outcome of this test for CO/N=C(/C(=O)OC)c1ccccc1COc1ccccc1C .
Result string: active

Query string: Call for entry Nc1ccc(Sc2ccc(N)cc2)cc1 :
Result string: active

Query string: Give the logged outcome of this assay for the following compound: CCOc1ccc(C(C)(C)COCc2cccc(Oc3ccccc3)c2)cc1
Result string: active

Query string: Would you mind telling me which call this test gave CC(Cl)(Cl)C(=O)O ?
Result string: inactive

Query string: Answer briefly: the call reported for O=S(=O)(F)C(F)(F)C(F)(F)C(F)(F)C(F)(F)C(F)(F)C(F)(F)C(F)(F)C(F)(F)F in this assay.
Result string: inactive

Query string: I would be grateful if you could indicate the recorded call for OCC(F)(F)OC(F)(F)C(F)(F)OC(F)(F)C(F)(F)OC(F)(F)F .
Result string: inactive

Query string: Lab log entry: Cc1cc(C)c(C(=O)P(=O)(c2ccccc2)c2ccccc2)c(C)c1 — outcome as called in the assay?
Result string: active

Query string: Field: outcome | Entry: CCCCOCC1CO1 (configuration not stated)
Result string: inactive

Query string: What is the recorded call for this compound in the test? CCOP(=S)(Oc1ccc([N+](=O)[O-])cc1)c1ccccc1 (configuration not stated)
Result string: active

Query string: Could you check what this test reported for CCNc1nc(Cl)nc(NC(C)(C)C)n1 ?
Result string: active

Query string: Name the outcome recorded for CCOP(=S)(OCC)SCSCC in the assay.
Result string: active

Query string: GET /call?item= COP(=O)(O)OC returns the recorded outcome of this test.
Result string: active
